Catalogue of sequences with associated apparent KD of MS2 coat protein
# Test system: MS2 coat protein
# assay-notes: apparent KD of MS2 coat protein; designed switch direction (-1 OFF switch, 1 ON switch): -1; higher = weaker reporter binding
# applied-conditions: input ligand: microRNA oligo, concentration not stated
# value in nM; strip the unit string

The recorded apparent KD of MS2 coat protein for entry CCGAGGUAGCGGUCCUAUGACAUGAGGAUCACCCAUGUACCUCGCUACGAGCUUUUUGCUCGUCAUAUAAUUCUCGG [Mat - Sensor v3 - turn-off var 1 - JL Mod - D30] (Eterna round: R96, puzzle: Sensor v3, turn-off variant 1) equals 49.7

The recorded apparent KD of MS2 coat protein for entry GUCAGCUCGUCAGGAUAUACAUCACUGCUUCGGCAGUGUAUUAAGAUCACAUGAGGAUCACCCAUGUAGAAGGGACGAGCUGAC [ENG2/2-B1] (Eterna round: R96, puzzle: Exclusion NG 2) equals 21.2

The recorded apparent KD of MS2 coat protein for entry UUUCGGCAUGUAGGAUAUGGGUCCGAUUAGGAUUUAGAAGGACAUGAGGAUCACCCAUGUGCAUUUAAUUGGUCAUUACCGUUU [EXclNG1-LROPPY09] (Eterna round: R96, puzzle: Exclusion NG 1) equals 47.8

The recorded apparent KD of MS2 coat protein for entry ACAAGCUCUUUGCAACUUAGUUUUGUUGCUUCGUAGGUAACAUGAGGAUCACCCAUGUAAGACUGAUGUCGUCUUAU [JR_SV3TOV2_Sub086] (Eterna round: R96, puzzle: Sensor v3, turn-off variant 2) equals 20.6

The recorded apparent KD of MS2 coat protein for entry UUGCAGUCGUCAGGAUAUAGUAUUACGGCCUUUCAUUUCUUCAUACAUGAGGAUCACCCAUGUCGCUAGAAGGGAUUAUCGAUU [salish99_ExNG2_r04_106] (Eterna round: R96, puzzle: Exclusion NG 2) equals 17.1

The recorded apparent KD of MS2 coat protein for entry UGUUGUUACGCAGGAUAUCCACCAACAGGUGGAAGGAUAUGUACGCAGAAGGUUCGCCAACAGGCGGAGAAGGGCGGGUUAACA [pwkr exNG2 2xF7 2xFMN.26] (Eterna round: R96, puzzle: Exclusion NG 2) equals 63.4

---

# Tested on: MS2 coat protein
# assay-notes: apparent KD of MS2 coat protein; designed switch direction (-1 OFF switch, 1 ON switch): -1; higher = weaker reporter binding
# applied-conditions: Eterna round: R95; input ligand: none
recorded-endpoint: apparent KD of MS2 coat protein (µM)
# value in µM; strip the unit string

Check out these entries, answers already filled in.
item-sequence	target-system	recorded-measurement
AGUACUAACACGGGUGUGUUAGUACAAUAAGCUUGUGAAACAUGAGGAUCACCCAUGUCCUCAUAAGCUCGUCUUAU [salish99_TOv2_r3_075] (puzzle: Sensor v3, turn-off variant 2)	MS2 coat protein	0.0144
AGUACUAACACGAAAGUGUUAGUACAAUAAGCUUGUGAAACAUGAGGAUCACCCAUGUCCUCGUAAGCUCGUCUUAU [salish99_TOv2_r3_048] (puzzle: Sensor v3, turn-off variant 2)	MS2 coat protein	0.0377

Read the next record carefully.
The recorded apparent KD of MS2 coat protein for entry UAUUAGCAAGCAUGAUCCCACAUGAGGAUCACCCAUGUGCUCGUCUUAUAAGGUACUGUGACGAAAGUCACGGUACC [Sensor 3, v1 - 97] (puzzle: Sensor v3, turn-off variant 1) equals 0.218
